protocol.details: qHTS assay to test for compound auto fluorescence at 460 nm (blue) in HEK293 cell free culture (AID 720681)
measurement.conditions: cell-free medium, autofluorescence 405/460 nm (blue); series mostly up to 91.3 µM
The source made the active and inactive calls. Calls follow the shape of the dose curve; as a rule, active = well fitted curve in the direction sought with a large enough effect in the repeat runs; inconclusive = weak or mixed curves; inactive = flat fitted curve, though single readings scatter.
attribute.measured: fluorescence, % of fluorescent control

// known answers, use as guide
COC(=O)c1ccccc1S(=O)(=O)NC(=O)Nc1nc(C)cc(C)n1 | inactive
O=C(CCN1CC1)OCC(CO)(COC(=O)CCN1CC1)COC(=O)CCN1CC1 | inactive
CCOP(=S)(OCC)Oc1nc(Cl)n(C(C)C)n1 | inactive
CCN(Cc1ccc(Cl)nc1)/C(=C/[N+](=O)[O-])NC | inactive

Challenge: Please look up its fluorescence, % of fluorescent control: CC(CC(C#N)(c1ccccc1)c1ccccc1)N(C)C (stereo not drawn)
Response given: inactive

Challenge: Please look up its fluorescence, % of fluorescent control: CC1CN1P(=O)(N1CC1C)N1CC1C (stereo not drawn)
Response given: inactive

Challenge: Please look up its fluorescence, % of fluorescent control: "N#Cc1c(Cl)cccc1Cl"
Response given: inactive

Challenge: Please look up its fluorescence, % of fluorescent control: "CCCSC(=O)Cl"
Response given: inactive

Challenge: Please look up its fluorescence, % of fluorescent control: "O=[N+]([O-])c1cccc(O)c1"
Response given: inactive
